- Test system: SK-MEL-28 melanoma
- assay_info: NCI-60 one-dose screen, 48 h (100 = growth as untreated, 0 = no growth, -100 = all killed)
- condition_details: 10 µM unless noted
About 83,000 compounds went through this panel and 20% of them were active in at least one assay; those are over-represented in the sample as a whole.
assay_endpoint: growth (%)
Please give a number only; it is taken to be in %.

| compound_structure_string | output_unit | growth |
| --- | --- | --- |
| CCOC(=O)c1ccc(NC2=C(Cl)C(=O)c3nc(C)ccc3C2=O)cc1 | % | 55.2 |

# input # assay system SK-MEL-28 melanoma: give growth of COc1cc(C(=O)c2cc(C(C)=O)c3ccc(C)cn23)cc(OC)c1OC
# output 58.1

# input Answer briefly: growth recorded on SK-MEL-28 melanoma for C=C(C)[C@@H]1CC[C@]2(COP(=O)(OCC)OCC)CC[C@]3(C)[C@H](CC[C@@H]4[C@@]5(C)CC[C@H](OP(=O)(OCC)OCC)C(C)(C)[C@@H]5CC[C@]43C)[C@@H]12
# output 77.5

# input Report value only: growth, SK-MEL-28 melanoma, Clc1cccc(/C=N/Nc2nc(N/N=C/c3cccc(Cl)c3)nc(N3CCCCC3)n2)c1
# output 96.2

----------
// reported growth per item
- Tested on: TK-10 renal
- assay_info: NCI-60 one-dose screen, 48 h (100 = growth as untreated, 0 = no growth, -100 = all killed)
- condition_details: 10 µM unless noted
This is part of a sample that, as a whole, favours compounds with a hit. Of some 83,000 tested, about 20% had one in any assay.
Give the number; % is assumed, so skip it.

For orientation, consider the following solved cases.
| compound | assay_endpoint | recorded_measurement |
| --- | --- | --- |
| CC1=C(C)C(=O)C(Nc2cccc(C(F)(F)F)c2)=C(Br)C1=O | growth | 157 |
| CN(C)S(=O)(=O)c1ccc(-c2nc(C(Cl)Cl)nc3cc(-c4ccc(F)cc4)nn23)cc1 | growth | 29.5 |

# input // Input: CN1CCN(Cc2ccc(/C=N/Nc3ccnc4cc(Cl)ccc34)cc2)CC1 . Output its growth only.
# output 162

# input Entry COc1ccc2c(c1)c(-c1nn3cc(-c4ccncc4)nc3s1)cn2C needs its growth filled in; supply it.
# output 130

# input Identify measured growth corresponding to COc1cc(OC)cc(-c2cc(-c3c[nH]c4ccccc34)nc(-c3c[nH]c4ccccc34)c2C#N)c1
# output 124

----------
- System: COLO 205 colon
- assay_info: NCI-60 one-dose screen, 48 h
- condition_details: 10 µM unless noted
Compounds without any hit were thinned out: in the full panel of roughly 83,000, 20% have a hit. Activity calls are given as the source filed them. Rule for the calls: active = growth percent below 10; inactive = the rest.
Answer with one of the outcomes 1 (yes) = active, 0 (no) = inactive

| compound_structure_string | cat |
| --- | --- |
| CCCCc1nc2c(N)nc3ccccc3c2n1Cc1ccc(OC)cc1 | 0 (no) |
| COC(=O)c1ccc(NC2=C(Cl)C(=O)C(C)=C(C)C2=O)cc1 | 0 (no) |
| COc1ccc(NC2=C(Br)C(=O)C(C)=C(C)C2=O)cc1OC | 0 (no) |
| CC(C)NC(=O)c1cc(-c2ccc(NC(=O)Nc3ccc(F)cc3)cc2)nc2cccnc12 | 0 (no) |

// next entry
# input Recorded test call requested for O=C(CCCCCCNC(=O)C(O)(O)C(F)(F)F)Nc1ccc(-c2ccccc2)cc1
# output 1 (yes)

Taken from PubChem BioAssay (NCI).
